- METHOD_SUMMARY: Toxicity in epiocular tissue irritancy model (unknown origin) assessed as tissue viability up to 46 mins relative to control
- Assay type: tissue-based, Eye
- EXPERIMENTAL_SETUP: read-out: Activity
ASSAY_READOUT: viability at 46 min (%)
Numbers only, in %.

What measured viability at 46 min goes with CC(C)(CCS(=O)(=O)CC(O)CO)N(Cl)Cl (stereo unspecified) ? 50

###

Could you please report measured MBC for the items listed next?
- Test system: Escherichia coli
- METHOD_SUMMARY: Bactericidal activity against Escherichia coli ATCC 25922 at pH 4 after 1 hr by CLSI method
- Assay type: functional
- EXPERIMENTAL_SETUP: ATCC 25922, 1 h
Answers are plain numbers, in µg/mL.

// batch mode: one MBC value per listed entry
1. CC(C)(CCS(=O)(=O)CCO)N(Cl)Cl
2. CC(C)(CCS(=O)(=O)CCC(O)CO)N(Cl)Cl (stereo not drawn)
3. CC(=O)OCC(CS(=O)(=O)CCC(C)(C)N(Cl)Cl)OC(C)=O (stereo not drawn)
4. CC(C)(CCS(=O)(=O)CC(O)C(O)CO)N(Cl)Cl (stereo not drawn)
5. CC(C)(CCS(=O)(=O)C[C@@H](O)CO)N(Cl)Cl
6. CC(C)(CCS(=O)(=O)C(CO)C(O)CO)N(Cl)Cl (stereo not drawn)

0.5
2
1
2
2
2

// batch mode: one MBC value per listed entry
1. CC(=O)OCC(O)CS(=O)(=O)CCC(C)(C)N(Cl)Cl (stereo not drawn)
2. CO[C@H]1O[C@H](CS(=O)(=O)CCC(C)(C)N(Cl)Cl)[C@@H](O)[C@H](O)[C@H]1O
3. CC(C)(CO)CS(=O)(=O)CCC(C)(C)N(Cl)Cl
4. CC(C)(CCS(=O)(=O)CC(O)CO)N(Cl)Cl (stereo not drawn)
5. CC(C)(CS(=O)(=O)CCO)N(Cl)Cl
6. CN(CCO)S(=O)(=O)CCC(C)(C)N(Cl)Cl

1. 2
2. 8
3. 4
4. 2
5. 1
6. 2

What measured MBC goes with CC(C)(CCS(=O)(=O)C[C@H](O)CO)N(Cl)Cl ? 2

###

- Test system: Human adenovirus 5
- METHOD_SUMMARY: Virucidal activity against Adenovirus 5 ATCC VR-1516 infected in human A549 cells assessed as viral cytopathic effect at pH 7 incubated for 1 hr measured after 6 days by three-fold serial dilution assay
- Format: functional, organism-based
- EXPERIMENTAL_SETUP: Human mastadenovirus C, ATCC VR-1516, A549; read-out: IC50
ASSAY_READOUT: pIC50
Answers are plain numbers, as −log10 of the molar value.

Recorded results for 8 compounds are shown here.
CN(CCO)S(=O)(=O)CCC(C)(C)N(Cl)Cl	4.85
CC(C)(CCS(=O)(=O)C[C@@H](O)CO)N(Cl)Cl	4.89
CC(C)(CCS(=O)(=O)C(CO)C(O)CO)N(Cl)Cl (centres undefined)	4.72
CC(C)(CCS(=O)(=O)CCCCCCCCO)N(Cl)Cl	4.49
CC(C)(CCS(=O)(=O)CC(O)CO)N(Cl)Cl (centres undefined)	4.59
CC(C)(CCS(=O)(=O)CCO)N(Cl)Cl	5.35
CC(C)(CO)CS(=O)(=O)CCC(C)(C)N(Cl)Cl	5.02
CC(C)(CCS(=O)(=O)C[C@H](O)CO)N(Cl)Cl	4.85

Now look at this entry.
So what pIC50 did CC(C)(CCS(=O)(=O)CCC(O)CO)N(Cl)Cl (centres undefined) get with Human adenovirus 5? 4.74
